runDescription: folding enthalpy; higher = less favourable; fluorescence melt of hairpins on a sequencing array, two-state fit
cond: sodium 0.088 M
assayReadout: folding enthalpy (kcal/mol)
All answers are understood in kcal/mol, so give the number only.

GATCGCCACAGCGATC ((((((....)))))): -38.2

Now consider a different sequence.
// Input: GAAATCCCGAAAGGGTTC (((..(((....)))))) . Output its folding enthalpy only. -9.79

###

runDescription: folding enthalpy; higher = less favourable; fluorescence melt of hairpins on a sequencing array, two-state fit
cond: sodium 0.088 M
# folding enthalpy per entry
All answers are understood in kcal/mol, so give the number only.

A selection of reference data follows.
GGGGGTCGAAAGACTCCC (((.(((....))).))): -43.5
GAAGTTGGAAACAGCTTC ((((.((....)).)))): -38.7
GGCTTCGAAAGAAACGCC ((((((....)))..))): -26.1
GATCGTGCAACGATC ((((((...)))))): -41
GATCCTCTCGAGGATC ((((((....)))))): -42.4

// Input: GGGTGTGGAAACGCACTC (.(((.(....).))).) . Output its folding enthalpy only. -24

// Input: GTATTAGGAAACTGATAC ((((.((....)).)))) . Output its folding enthalpy only. -21.3

// Input: GCACACGGAAACATGCGC ((.((.(....).)).)) . Output its folding enthalpy only. -19.6

// Input: GAGGCCCGAAAGGGCTC (((.(((....)))))) . Output its folding enthalpy only. -9.95

// Input: GAACATGGAAACACGTTC ((((.((....)).)))) . Output its folding enthalpy only. -27.5

// Input: GATAAACGAAAGTTGATC (((.(((....))).))) . Output its folding enthalpy only. -23.4

// Input: GTCCACCGAAAGGTTGAC (((.(((....))).))) . Output its folding enthalpy only. -29.6

// Input: GTGACAGGAAACCGTCAC (((((.(....).))))) . Output its folding enthalpy only. -34.6
